target: Neuronal acetylcholine receptor; alpha4/beta2 (Rattus norvegicus, UniProt P09483+P12390); assay: In vitro binding affinity towards rat Nicotinic acetylcholine receptor alpha4-beta2 using 0.5 nM [3H]epibatidine
Sequence (P09483 whole entry): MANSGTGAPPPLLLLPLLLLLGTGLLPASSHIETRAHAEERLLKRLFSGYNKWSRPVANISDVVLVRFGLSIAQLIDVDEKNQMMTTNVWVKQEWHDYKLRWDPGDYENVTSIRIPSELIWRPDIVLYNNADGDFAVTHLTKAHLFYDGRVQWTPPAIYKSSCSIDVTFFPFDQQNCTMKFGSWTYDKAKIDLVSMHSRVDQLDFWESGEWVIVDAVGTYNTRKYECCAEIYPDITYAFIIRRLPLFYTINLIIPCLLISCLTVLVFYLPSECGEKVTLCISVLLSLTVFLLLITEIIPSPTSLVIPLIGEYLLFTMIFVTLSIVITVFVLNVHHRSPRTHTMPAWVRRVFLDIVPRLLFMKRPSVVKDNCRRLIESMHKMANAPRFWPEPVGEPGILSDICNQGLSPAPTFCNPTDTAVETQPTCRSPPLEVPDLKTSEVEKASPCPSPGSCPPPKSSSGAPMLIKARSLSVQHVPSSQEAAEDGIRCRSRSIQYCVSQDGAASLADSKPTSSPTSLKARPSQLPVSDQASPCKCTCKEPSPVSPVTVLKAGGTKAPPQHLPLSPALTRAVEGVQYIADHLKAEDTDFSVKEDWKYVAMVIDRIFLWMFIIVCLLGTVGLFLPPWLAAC
Sequence (P12390 whole entry): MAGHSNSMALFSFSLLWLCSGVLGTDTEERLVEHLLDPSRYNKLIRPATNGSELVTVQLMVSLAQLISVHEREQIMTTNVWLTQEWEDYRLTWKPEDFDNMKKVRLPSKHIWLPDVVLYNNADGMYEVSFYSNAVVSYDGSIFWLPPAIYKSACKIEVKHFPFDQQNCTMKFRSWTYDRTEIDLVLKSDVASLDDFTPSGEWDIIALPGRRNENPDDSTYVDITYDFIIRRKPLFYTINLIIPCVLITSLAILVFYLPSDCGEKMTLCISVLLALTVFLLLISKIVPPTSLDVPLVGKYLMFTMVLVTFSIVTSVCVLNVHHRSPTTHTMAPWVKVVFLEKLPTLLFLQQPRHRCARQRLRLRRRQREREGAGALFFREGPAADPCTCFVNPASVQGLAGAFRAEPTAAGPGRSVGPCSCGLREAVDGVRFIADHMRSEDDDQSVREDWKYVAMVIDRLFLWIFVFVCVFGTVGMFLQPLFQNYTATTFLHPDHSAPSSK
Please respond with Met when measured Ki is strictly beneath 0.06 nM, and with Not met in all other cases.

Below 0.06 nM on Ki? Entry Clc1ncc(C2CC3CCC2N3)cc1-c1ccccc1 (configuration not stated)
Met

Next: Fc1ccc(-c2cc(C3CC4CCC3N4)cnc2F)cc1 (configuration not stated)
Not met

Also Cc1cc(-c2cc(C3CC4CCC3N4)cnc2F)ccc1F (configuration not stated) , if possible.
Not met

How about COc1ccc(-c2cc(C3CC4CCC3N4)cnc2Cl)cc1 (configuration not stated) ?
Met

// same read-out, input: Fc1ncc(C2CC3CCC2N3)cc1-c1ccccc1 (configuration not stated)
Not met

Check Cc1cccc(-c2cc(C3CC4CCC3N4)cnc2F)c1 (configuration not stated) too.
Not met

Also check Fc1ncc(C2CC3CCC2N3)cc1-c1ccc(Cl)c(Cl)c1 (configuration not stated)
Not met

Subsequent entry: N#Cc1ccc(-c2cc(C3CC4CCC3N4)cnc2F)cc1 (configuration not stated)
Met

Check CN1C2CCC1C(c1cnc(Cl)c(-c3ccccc3)c1)C2 (configuration not stated) too.
Met

Moving on to the next molecule: Fc1ncc(C2CC3CCC2N3)cc1-c1ccc(Cl)cc1 (configuration not stated)
Not met

Consider next the molecule Cc1ccc(-c2cc(C3CC4CCC3N4)cnc2F)cc1 (configuration not stated) in the same way.
Met

Repeat for the following molecule: Cc1ccc(-c2cc(C3CC4CCC3N4)cnc2Cl)cc1 (configuration not stated)
Met

Hello, the source for this data is ChEMBL document CHEMBL1142744, in case you need it.
